Cited source: patent US7923465B2

biological target: hCB2 (Homo sapiens, UniProt P34972); assay: In vitro binding assay using hCB2-CHO membranes, [3H]-CP-55,940 displacement (Protocol IV); design: expressed in transfected cells; host or cells: CHO (hCB2-CHO, generated in-house); details: hCB2-CHO membranes, [3H]-CP-55,940 displacement
Sequence (P34972 whole entry): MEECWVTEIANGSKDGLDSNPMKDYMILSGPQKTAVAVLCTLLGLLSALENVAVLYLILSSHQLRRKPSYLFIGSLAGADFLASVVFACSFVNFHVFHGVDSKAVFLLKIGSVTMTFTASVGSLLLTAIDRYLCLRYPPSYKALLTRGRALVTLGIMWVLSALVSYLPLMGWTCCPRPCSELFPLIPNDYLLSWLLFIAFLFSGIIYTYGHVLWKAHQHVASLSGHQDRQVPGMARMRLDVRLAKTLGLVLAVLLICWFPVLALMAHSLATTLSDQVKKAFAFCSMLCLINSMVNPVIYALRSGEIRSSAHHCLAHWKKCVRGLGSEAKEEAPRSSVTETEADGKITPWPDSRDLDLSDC
assayMetric: % Displacement Protocol IV (%)
Numbers only, in %.

[
  {
    "compound": "CC1(C)C2CC[C@@](C)(C2)C1NC(=O)c1nn(-c2ccc(Cl)cc2)c2c1C1CC3CC(C1)CC2C3 (stereo partly drawn)",
    "% Displacement Protocol IV / %": 60.7
  },
  {
    "compound": "CC(C)(NC(=O)c1nn(-c2ccc(F)cc2F)c2c1C1CCC2(C)C1(C)C)c1ccccc1 (stereo not drawn)",
    "% Displacement Protocol IV / %": 88.44
  },
  {
    "compound": "O=C(NN1CCCCC1)c1nn(-c2ccc(Cl)cc2Cl)c2c1C1c3ccccc3C2C2C(=O)N(c3ccc(Cl)cc3)C(=O)C12 (stereo not drawn)",
    "% Displacement Protocol IV / %": 16.4
  },
  {
    "compound": "O=C(NCc1ccc(F)cc1)c1nn(-c2ccc(Cl)cc2)c2c1C1CC3CC(C1)CC2C3",
    "% Displacement Protocol IV / %": 17.02
  },
  {
    "compound": "CC(C)(C)NC(=O)c1nn(-c2ccc(F)cc2F)c2c1[C@H]1CC[C@]2(C)C1(C)C",
    "% Displacement Protocol IV / %": 49.68
  }
]

Look at each compound and report its % Displacement Protocol IV.
1. O=C(NC12CC3CC(CC(C3)C1)C2)c1nn(-c2ccc(Cl)cc2)c2c1C1CC3CC(C1)CC2C3
2. O=C(NCc1cccs1)c1nn(-c2ccc(F)cc2F)c2c1C1CCC2C1 (stereo not drawn)

Result:
1. 63.05
2. 75.26

Look at each compound and report its % Displacement Protocol IV.
1. O=C(NN1CCCCC1)c1nn(-c2ccc(Cl)cc2)c2c1C1CC3CC(C1)CC2C3
2. O=C(NC1CCCCC1)c1nn(-c2ccccc2Cl)c2c1C1CC3CC(C1)CC2C3

Result:
1. 15.79
2. 18.23

Look at each compound and report its % Displacement Protocol IV.
1. O=C(NNc1ccc(Cl)cc1)c1nn(-c2ccc(Cl)cc2)c2c1C1CC3CC(C1)CC2C3
2. COC(=O)[C@@H](NC(=O)c1nn(-c2ccc(F)cc2F)c2c1C1CCC2C1)c1ccc(F)cc1 (stereo partly drawn)
3. O=C(NN1CCOCC1)c1nn(-c2ccc(F)cc2F)c2c1C1CCC2C1 (stereo not drawn)

Result:
5.04
99.18
4.47

###

Please respond with reported % Displacement Protocol I for every item in the list.
target: CB1 (Rattus norvegicus); assay: Rat CB1 receptor binding using brain membrane, [3H]SR141716A displacement (Protocol I); parameters: CB1 receptor present in a rat brain membrane preparation; from tissue; host or cells: rat brain membrane; conditions: rat brain membrane, [3H]SR141716A displacement
Sequence (P20272 whole entry): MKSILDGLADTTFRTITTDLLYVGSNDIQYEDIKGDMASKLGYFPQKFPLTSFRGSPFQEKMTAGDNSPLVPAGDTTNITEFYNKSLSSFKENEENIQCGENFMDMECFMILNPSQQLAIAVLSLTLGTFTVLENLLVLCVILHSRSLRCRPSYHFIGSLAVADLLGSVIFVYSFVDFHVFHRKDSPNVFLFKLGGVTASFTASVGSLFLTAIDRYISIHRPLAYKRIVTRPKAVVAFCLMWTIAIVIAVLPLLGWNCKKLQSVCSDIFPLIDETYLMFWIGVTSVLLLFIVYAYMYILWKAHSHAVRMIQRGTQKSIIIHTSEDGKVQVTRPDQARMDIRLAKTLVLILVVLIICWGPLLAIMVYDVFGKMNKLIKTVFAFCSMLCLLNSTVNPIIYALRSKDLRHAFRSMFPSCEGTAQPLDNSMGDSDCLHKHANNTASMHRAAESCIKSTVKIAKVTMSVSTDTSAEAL
Put down the number, then write its unit next to it.

[
  {
    "molecule": "O=C(NN1CCCCC1)c1nn(-c2ccc(Cl)cc2)c2c1C1CC3CC(C1)CC2C3",
    "% Displacement Protocol I": "50.4%"
  },
  {
    "molecule": "O=C(NCc1ccc(Cl)cc1)c1nn(-c2ccc(Cl)cc2)c2c1C1CC3CC(C1)CC2C3",
    "% Displacement Protocol I": "59.9%"
  },
  {
    "molecule": "O=C(NCc1ccc(C(F)(F)F)cc1)c1nn(-c2ccc(Cl)cc2)c2c1C1CCC2C1 (centres unmarked)",
    "% Displacement Protocol I": "25.3%"
  },
  {
    "molecule": "CN(NC(=O)c1nn(-c2ccc(Cl)cc2Cl)c2c1C1CCC2c2ccccc21)c1ccc(Cl)cc1Cl (centres unmarked)",
    "% Displacement Protocol I": "90.6%"
  },
  {
    "molecule": "O=C(c1nn(-c2ccc(Cl)cc2)c2c1C1CCC2C1)N1CCCCC1 (centres unmarked)",
    "% Displacement Protocol I": "12.6%"
  }
]

Look at each molecule and report its % Displacement Protocol I.
1. O=C(NCCc1ccccc1)c1nn(-c2ccc(Cl)cc2)c2c1C1CC3CC(C1)CC2C3
2. Cn1nc2c(c1C(=O)NN1CCCCC1)C1CC3CC(CC2C3)C1 [Example 189a]
3. O=C(c1n[nH]c2c1C1CC3CC(CC2C3)C1)N1CCCCC1
4. C[C@H](NC(=O)c1nn(-c2ccc(Cl)cc2Cl)c2c1C1CCC2C1)c1ccccc1 (some centres unmarked)
5. O=C(NCc1ccc(F)cc1)c1nn(-c2ccc(Cl)cc2)c2c1C1CC3CC(C1)CC2C3
6. O=C(NN(c1ccccc1)c1ccccc1)c1nn(-c2ccc(Cl)cc2Cl)c2c1C1CC3CC(C1)CC2C3
7. O=C(Nc1ccccc1)c1nn(-c2ccccc2)c2c1C1CC3CC(C1)CC2C3
8. O=C(NCc1ccccc1)c1nn(-c2ccc(Cl)cc2)c2c1C1CC3CC(C1)CC2C3

Result:
1: 31.3%; 2: 7%; 3: 19.5%; 4: 99.8%; 5: 55.9%; 6: 75.6%; 7: 37%; 8: 62.4%
